test system: HeLa cells; experiment: Proliferation assay HeLa; format: cell-based, human; conditions: 4 days, crystal violet; trifluoroacetate; read-out: Inhibition of HeLa cell proliferation IC50
value_type: IC50
Form field: result (number plus unit)

Exercise: Suppose we examine the compound CS(=O)(Cc1cc2nc(c1)OCCCOc1cc(F)ccc1-c1cc(ncc1F)N2)=NS(=O)(=O)CCN.O=C(O)C(F)(F)F (racemic) [Example 24, trifluoroacetate] ; what IC50 value has been reported?
Key: 82 nM

----------
Test: Caco-2 permeation assay
Format: in vitro ADME
Settings: human, pH 7.2; Caco-2 monolayer, 2 μM test compound; read-out: Efflux ratio (Papp B-A/Papp A-B)
Experimental: 5. Caco-2 Permeation Assay: Caco-2 cells (purchased from DSMZ Braunschweig, Germany) were seeded at a density of 4.5×10^4 cells per well on 24 well insert plates, 0.4 μm pore size, and grown for 15 days in DMEM medium supplemented with 10% fetal bovine serum, 1% GlutaMAX (100×, GIBCO), 100 U/mL penicillin, 100 μg/mL streptomycin (GIBCO) and 1% non essential amino acids (100×). […] For assessment of monolayer integrity the transepithelial electrical resistance (TEER) was measured. […]
Overview of recorded efflux ratio at 2 h, 2 μM for various compounds
Respond numerically, and do not add a unit to the figure.

Exercise: What value of measured efflux ratio at 2 h, 2 μM is listed for CS(=N)(=O)Cc1cc2cc(c1)OCCCCOc1cc(F)ccc1-c1nc(ncc1F)N2 (racemic) ?
Key: 1.4

Exercise: Then what about the compound CS(=O)(=O)N=S(C)(=O)Cc1cc2nc(c1)OCCCOc1cc(F)ccc1-c1cc(ncc1F)N2 (racemic) ?
Key: 1.5

Exercise: Similarly, CS(=O)(Cc1cc2nc(c1)OCCCOc1cc(F)ccc1-c1cc(ncc1F)N2)=NC(=O)OCCN (racemic) ?
Key: 74.5

Exercise: Further, for CS(=O)(Cc1cc2nc(c1)OCCCOc1cc(F)ccc1-c1cc(ncc1F)N2)=NS(=O)(=O)CCN (racemic) ?
Key: 69.7

Exercise: // repeat for `CS(=O)(=O)Cc1cc2nc(c1)OCCCOc1cc(F)ccc1-c1cc(ncc1F)N2` and report
Key: 0.8

----------
# Lookup of reported IC50 keyed by entry
test system: HeLa cells; assay: Proliferation assay HeLa; format: cell-based, human; conditions: Homo sapiens, HeLa, 96 h, 4 days, crystal violet; read-out: Inhibition of HeLa cell proliferation IC50
Excerpt: […]
# unit: nM | format: bare number

Exercise: Request the reported IC50 associated with CC(=O)N=S(C)(=O)Cc1cc2nc(c1)OCCCOc1cc(F)ccc1-c1cc(ncc1F)N2 (racemic)
Key: 10

----------
Selectivity CDK9 over CDK2: IC50 (CDK2)/IC50 (CDK9) for assorted compounds
target: CDK9/CycT1 (Homo sapiens); construct: Recombinant full-length His-tagged human CDK9 and CycT1; His; purchased Invitrogen PV4131; host or cells: insect cells; test: CDK9/CycT1 kinase assay (TR-FRET, Method 1a); assay type: biochemical; details: Methods 1a and 2a; minimal values where CDK9 IC50 is at the assay limit
// return just the number, without any unit appended

// solved cases for Selectivity CDK9 over CDK2: IC50 (CDK2)/IC50 (CDK9) follow
INSERT INTO results (compound, value_reported) VALUES
  ('CCNC(=O)N=S(C)(=O)Cc1cc2nc(c1)OCCCOc1cc(F)ccc1-c1cc(ncc1F)N2 (racemic) [Example 17]', 1.3),
  ('CS(=N)(=O)Cc1cc2cc(c1)OCCCCOc1cc(F)ccc1-c1nc(ncc1F)N2 (racemic) [Example 1]', 7.4),
  ('CS(=O)(Cc1cc2nc(c1)OCCCOc1cc(F)ccc1-c1cc(ncc1F)N2)=NS(=O)(=O)CCN (racemic) [Example 23]', 3.5),
  ('CSCc1cc2nc(c1)OCCOc1cc(F)ccc1-c1cc(ncc1F)N2 [Example 9]', 963.7),
  ('CSCc1cc2nc(c1)OCCCOc1cc(F)ccc1-c1cc(ncc1F)N2 [Example 3]', 6.0),
  ('CS(=N)(=O)Cc1cc2nc(c1)OCCOc1cc(F)ccc1-c1cc(ncc1F)N2 (racemic) [Example 11]', 72.6),
  ('NCCS(=O)(=O)Cc1cc2nc(c1)OCCCOc1cc(F)ccc1-c1cc(ncc1F)N2 [Example 26]', 1.7),
  ('CS(=O)(Cc1cc2nc(c1)OCCCOc1cc(F)ccc1-c1cc(ncc1F)N2)=NC(=O)OCCN (racemic) [Example 25]', 1.3),
  ('CS(=O)(Cc1cc2nc(c1)OCCCOc1cc(F)ccc1-c1cc(ncc1F)N2)=NS(=O)(=O)CCN.O=C(O)C(F)(F)F (racemic) [Example 24]', 6.2),
  ('C[S+]([O-])Cc1cc2nc(c1)OCCCOc1cc(F)ccc1-c1cc(ncc1F)N2 (racemic) [Example 4]', 1.7);

Exercise: Checklist item: Selectivity CDK9 over CDK2: IC50 (CDK2)/IC50 (CDK9) tested on CDK9/CycT1 (Homo sapiens), entry CS(=O)(=O)N=S(C)(=O)Cc1cc2nc(c1)OCCCOc1cc(F)ccc1-c1cc(ncc1F)N2 (racemic) [Example 22] , value?
Key: 3.7

Exercise: What would you report for CS(=O)(Cc1cc2cc(c1)OCCCOc1cc(F)ccc1-c1nc(ncc1F)N2)=NC(=O)C(F)(F)F (racemic) [Example 16] ?
Key: 14.8

Exercise: Now the compound C[S+]([O-])Cc1cc2nc(c1)OCCCCOc1cc(F)ccc1-c1cc(ncc1F)N2 (racemic) [Example 13]
Key: 4.2

Exercise: Queued: CCOC(=O)N=S(C)(=O)Cc1cc2nc(c1)OCCCOc1cc(F)ccc1-c1cc(ncc1F)N2 (racemic) [Example 20]
Key: 2.2

Exercise: Then what about the compound CC(=O)N=S(C)(=O)Cc1cc2nc(c1)OCCCOc1cc(F)ccc1-c1cc(ncc1F)N2 (racemic) [Example 18] ?
Key: 1.7

Exercise: Same for CS(=N)(=O)Cc1cc2nc(c1)OCCCOc1cc(F)ccc1-c1cc(ncc1F)N2 (single isomer, unassigned; enantiomer 2) [Example 7]
Key: 0.3

Exercise: Let us now turn to CS(=N)(=O)Cc1cc2nc(c1)OCCCOc1cc(F)ccc1-c1cc(ncc1F)N2 (racemic) [Example 5]
Key: 0.65

Exercise: // same read-out, input: CS(=O)(Cc1cc2nc(c1)OCCCOc1cc(F)ccc1-c1cc(ncc1F)N2)=NC(=O)OCCCl (racemic) [Example 21]
Key: 1.6

Exercise: Another compound: CS(=N)(=O)Cc1cc2nc(c1)OCCCOc1cc(F)ccc1-c1cc(ncc1F)N2 (single isomer, unassigned; enantiomer 1) [Example 6]
Key: 0.9

Exercise: For CS(=O)(=O)Cc1cc2nc(c1)OCCCOc1cc(F)ccc1-c1cc(ncc1F)N2 [Example 8] then?
Key: 1.3

Exercise: Queued: CSCc1cc2cc(c1)OCCCOc1cc(F)ccc1-c1nc(ncc1F)N2 [Example 2]
Key: 13.5

----------
target: CDK9/CycT1 (Homo sapiens, UniProt P50750); construct: Recombinant full-length His-tagged human CDK9 and CycT1; His; purchased Invitrogen PV4131; host or cells: insect cells; test: CDK9/CycT1 high ATP kinase assay (TR-FRET, Method 1b); type: biochemical; conditions: Method 1b, 2 mM ATP
value_type: pIC50
Expect pIC50 as a plain number equal to -log10 of the molar concentration.

INSERT INTO results (compound, system_name, value_reported) VALUES
  ('CN=S(C)(=O)Cc1cc2nc(c1)OCCCOc1cc(F)ccc1-c1cc(ncc1F)N2 (racemic) [Example 19]', 'CDK9/CycT1 (Homo sapiens, UniProt P50750)', 8.72);

Exercise: Look at this compound and give its reported pIC50. CS(=O)(Cc1cc2nc(c1)OCCCOc1cc(F)ccc1-c1cc(ncc1F)N2)=NC(=O)OCCN (racemic) [Example 25]
Key: 8.52

Exercise: Param item: CS(=O)(=O)N=S(C)(=O)Cc1cc2nc(c1)OCCCOc1cc(F)ccc1-c1cc(ncc1F)N2 (racemic) [Example 22]
Key: 8.57

Exercise: Then this compound: CS(=N)(=O)Cc1cc2cc(c1)OCCCCOc1cc(F)ccc1-c1nc(ncc1F)N2 (racemic) [Example 1]
Key: 8.77

----------
target: T1, human PTEFb (CDK9/Cyclin T1) (Homo sapiens, UniProt P50750); test: Surface plasmon resonance PTEFb; format: binding; settings: SPR, 25° C.; below 5E-5 s^-1 not resolvable; read-out: Dissociation rate constant koff
T1 construct: purchased ProQinase, Freiburg, Germany
T1 sequence (P50750 whole entry): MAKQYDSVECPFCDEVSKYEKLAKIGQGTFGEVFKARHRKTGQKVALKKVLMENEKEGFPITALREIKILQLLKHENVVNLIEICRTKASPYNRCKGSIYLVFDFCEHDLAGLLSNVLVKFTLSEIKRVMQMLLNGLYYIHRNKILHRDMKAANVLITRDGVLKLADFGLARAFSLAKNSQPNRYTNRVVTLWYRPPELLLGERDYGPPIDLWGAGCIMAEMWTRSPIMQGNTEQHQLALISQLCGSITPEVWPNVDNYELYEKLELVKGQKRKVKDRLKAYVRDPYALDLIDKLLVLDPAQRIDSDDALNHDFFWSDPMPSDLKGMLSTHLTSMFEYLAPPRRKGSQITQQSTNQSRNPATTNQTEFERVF
T1 sequence (O60563 whole entry partner): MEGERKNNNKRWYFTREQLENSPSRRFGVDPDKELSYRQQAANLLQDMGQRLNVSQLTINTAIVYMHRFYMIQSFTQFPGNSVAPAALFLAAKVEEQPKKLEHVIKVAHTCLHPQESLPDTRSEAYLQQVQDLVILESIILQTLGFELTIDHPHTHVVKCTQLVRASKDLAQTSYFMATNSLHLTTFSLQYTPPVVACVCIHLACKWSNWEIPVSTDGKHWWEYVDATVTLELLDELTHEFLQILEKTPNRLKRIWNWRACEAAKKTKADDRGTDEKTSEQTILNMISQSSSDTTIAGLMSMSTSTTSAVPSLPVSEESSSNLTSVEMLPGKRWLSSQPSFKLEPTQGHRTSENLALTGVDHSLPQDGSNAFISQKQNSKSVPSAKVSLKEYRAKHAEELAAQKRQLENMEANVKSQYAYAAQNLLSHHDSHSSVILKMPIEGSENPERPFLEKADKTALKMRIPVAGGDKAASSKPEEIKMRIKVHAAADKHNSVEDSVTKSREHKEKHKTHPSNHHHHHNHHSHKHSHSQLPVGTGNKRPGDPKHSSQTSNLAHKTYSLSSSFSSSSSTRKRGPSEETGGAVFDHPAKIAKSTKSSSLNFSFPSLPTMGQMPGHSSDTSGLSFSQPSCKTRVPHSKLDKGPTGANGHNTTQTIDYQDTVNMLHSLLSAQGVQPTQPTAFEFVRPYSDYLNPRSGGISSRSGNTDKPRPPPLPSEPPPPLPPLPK
Each record here notes measured koff.

INSERT INTO results (molecule, value_reported) VALUES
  ('CS(=N)(=O)Cc1cc2cc(c1)OCCCCOc1cc(F)ccc1-c1nc(ncc1F)N2 (racemic)', '< 5e-05 s⁻¹');

Exercise: Any idea what its koff is? The molecule is CS(=O)(Cc1cc2cc(c1)OCCCOc1cc(F)ccc1-c1nc(ncc1F)N2)=NC(=O)C(F)(F)F (racemic)
Key: < 5e-05 s⁻¹

Exercise: Same again, this time with CS(=N)(=O)Cc1cc2nc(c1)OCCCCOc1cc(F)ccc1-c1cc(ncc1F)N2 (racemic)
Key: < 5e-05 s⁻¹

Values compiled from patent US9963464B2.
